# study system: first (BRD4-BD1) or the second (BRD4-BD2) bromodomain of BRD4 (Homo sapiens, UniProt O60885)
# Construct: fused on or other part: GST tag (N-terminal fusion, used for capture on the glutathione acceptor beads)
# assay comment: BRD4-H4 tetraacetylated peptide inhibition AlphaScreen
# experimental context: inhibition of interaction of GST-BRD4 bromodomain with biotinylated tetraacetylated histone H4 peptide; table does not say whether BD1 or BD2
# Experimental: BRD4-H4 tetraacetylated peptide inhibition AlphaScreen Compounds are diluted in serial dilution 1:5 in assay buffer from 10 mM stock in DMSO (100 μM start concentration) in white OptiPlate-384 (PerkinElmer). […] Afterwards, the signal is measured in a PerkinElmer Envision HTS Multilabel Reader using the AlphaScreen protocol from PerkinElmer. […]
Just a reminder that ties go to -1: only IC50 strictly below 200 nM counts as 1.

compound | category label
Cc1noc(C)c1-c1cc2c(cn1)NC(=O)N(C)[C@H]2c1ccccc1 | 1
Cc1noc(C)c1-c1ccc2c(n1)C(c1ccccc1)N(C)C(=O)N2 (centres unmarked) | -1
COc1c(-c2c(C)noc2C)ccc2c1C(c1ccccc1)N(C)C(=O)N2 (centres unmarked) | -1
Cc1noc(C)c1-c1cnc2c(c1)C(c1ccccc1)N(C)C(=O)N2 (centres unmarked) | 1
COc1ccc(CN2C(=O)Oc3ccc(-c4c(C)noc4C)cc3C2c2ccccc2)cc1 (centres unmarked) | -1

* * *

# study system: first (BRD4-BD1) or the second (BRD4-BD2) bromodomain of BRD4 (Homo sapiens, UniProt O60885)
# Construct: fused on or other part: GST tag (N-terminal fusion, used for capture on the glutathione acceptor beads)
# assay comment: BRD4-H4 tetraacetylated peptide inhibition AlphaScreen
# experimental context: inhibition of interaction of GST-BRD4 bromodomain with biotinylated tetraacetylated histone H4 peptide; table does not say whether BD1 or BD2
pIC50: −log10 of the molar value.
Listed next: entries and their corresponding pIC50.
measured quantity: pIC50

compound | numeric result
Cc1noc(C)c1-c1cc2c(cn1)NC(=O)N(C)C2c1ccccc1 (centres unmarked) | 6.08
Cc1noc(C)c1-c1ccc2c(c1)C(c1ccccc1)N(CC1CCOCC1)C(=O)N2 (centres unmarked) | 7.42
Cc1noc(C)c1-c1ccc2c(c1)C(c1ccccc1)N(Cc1ccccc1)C(=O)N2 (centres unmarked) | 6.65
Cc1noc(C)c1-c1ccc2c(c1)C(c1ccccn1)N(C)C(=O)N2 (centres unmarked) | 6.92
Cc1noc(C)c1-c1ccc2c(c1)C(C)(c1ccccc1)N(C)C(=O)N2 (centres unmarked) | 7.51

* * *

# study system: first (BRD4-BD1) or the second (BRD4-BD2) bromodomain of BRD4 (Homo sapiens, UniProt O60885)
# Construct: fused on or other part: GST tag (N-terminal fusion, used for capture on the glutathione acceptor beads)
# assay comment: BRD4-H4 tetraacetylated peptide inhibition AlphaScreen
# experimental context: inhibition of interaction of GST-BRD4 bromodomain with biotinylated tetraacetylated histone H4 peptide; table does not say whether BD1 or BD2
pIC50: −log10 of the molar value.
Please use TRUE whenever pIC50 is not below 7, and FALSE whenever it is.

molecule | category label
Cc1noc(C)c1-c1ccc2c(c1)C(c1ccccc1)N(C)C(=O)N2 (stereo not drawn) | TRUE
Cc1noc(C)c1-c1ccc2c(c1)[C@H](c1ccccc1)N(C)C(=O)N2 | TRUE
Cc1noc(C)c1-c1ccc2c(c1)C(c1ccccc1)OC(=O)N2 (stereo not drawn) | FALSE
COc1noc(C)c1-c1ccc2c(c1)C(c1ccccc1)N(C)C(=O)N2 (stereo not drawn) | FALSE
Cc1noc(C)c1-c1ccc2c(c1)C(c1ccccc1)N(CC1CCN(C)CC1)C(=O)N2 (stereo not drawn) | TRUE
